The reported measurements were obtained from ChEMBL document CHEMBL1149378.

Provide the recorded pIC50 for the entries that follow.
Formally, pIC50 is defined as -log10 of the concentration c, with c in mol/L.

INPUT: Write down the reported pIC50 of `N#CC(C#N)=C(N)/C(C#N)=C/c1cc(O)c(O)c(O)c1` , test system: UniProt:P09619.
Sequence (P09619 whole entry): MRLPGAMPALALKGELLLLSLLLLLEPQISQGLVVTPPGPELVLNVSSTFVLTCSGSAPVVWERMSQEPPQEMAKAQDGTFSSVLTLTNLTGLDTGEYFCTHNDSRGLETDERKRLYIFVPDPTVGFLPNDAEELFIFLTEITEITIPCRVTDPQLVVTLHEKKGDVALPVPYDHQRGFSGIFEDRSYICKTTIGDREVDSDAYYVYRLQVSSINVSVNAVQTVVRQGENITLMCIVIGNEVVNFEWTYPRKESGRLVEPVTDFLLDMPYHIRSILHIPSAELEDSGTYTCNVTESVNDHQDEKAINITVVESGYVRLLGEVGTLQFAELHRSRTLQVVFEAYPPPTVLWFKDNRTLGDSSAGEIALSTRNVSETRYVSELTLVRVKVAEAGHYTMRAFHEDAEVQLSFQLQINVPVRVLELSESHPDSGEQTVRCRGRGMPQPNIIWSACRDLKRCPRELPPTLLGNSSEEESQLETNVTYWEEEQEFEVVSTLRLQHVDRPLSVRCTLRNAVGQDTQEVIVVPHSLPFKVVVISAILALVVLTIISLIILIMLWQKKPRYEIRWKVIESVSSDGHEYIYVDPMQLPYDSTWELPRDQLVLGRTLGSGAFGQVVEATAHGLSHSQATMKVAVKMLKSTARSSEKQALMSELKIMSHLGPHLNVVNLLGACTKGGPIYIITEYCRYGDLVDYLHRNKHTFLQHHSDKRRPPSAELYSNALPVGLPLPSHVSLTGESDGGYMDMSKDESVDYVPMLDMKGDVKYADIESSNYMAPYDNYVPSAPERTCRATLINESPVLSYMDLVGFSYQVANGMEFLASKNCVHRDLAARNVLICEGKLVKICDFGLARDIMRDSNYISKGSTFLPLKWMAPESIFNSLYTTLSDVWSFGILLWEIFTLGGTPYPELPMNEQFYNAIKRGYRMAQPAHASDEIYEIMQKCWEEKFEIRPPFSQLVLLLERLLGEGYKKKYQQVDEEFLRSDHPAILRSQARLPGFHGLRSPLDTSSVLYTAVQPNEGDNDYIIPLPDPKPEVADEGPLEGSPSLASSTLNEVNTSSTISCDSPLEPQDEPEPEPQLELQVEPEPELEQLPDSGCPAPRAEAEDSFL
OUTPUT: 5.55

INPUT: Write down the reported pIC50 of `COC(=O)c1c(OCCCN(C)C)c2ccccc2c2oc3c(c12)C(=O)c1ccccc1C3=O` , test system: UniProt:P09619.
OUTPUT: 4.99

INPUT: Write down the reported pIC50 of `COC(=O)c1c(OCCN2CCCCC2)c2ccccc2c2oc3c(c12)C(=O)c1ccccc1C3=O` , test system: UniProt:P09619.
OUTPUT: 5.26
